assayTarget: Serotonin 4 (5-HT4) receptor (Cavia porcellus, UniProt O70528)
Construct: from tissue; host or cells: guinea pig (Std-Hartley) brain striatum membrane fraction
Sequence (O70528 whole entry): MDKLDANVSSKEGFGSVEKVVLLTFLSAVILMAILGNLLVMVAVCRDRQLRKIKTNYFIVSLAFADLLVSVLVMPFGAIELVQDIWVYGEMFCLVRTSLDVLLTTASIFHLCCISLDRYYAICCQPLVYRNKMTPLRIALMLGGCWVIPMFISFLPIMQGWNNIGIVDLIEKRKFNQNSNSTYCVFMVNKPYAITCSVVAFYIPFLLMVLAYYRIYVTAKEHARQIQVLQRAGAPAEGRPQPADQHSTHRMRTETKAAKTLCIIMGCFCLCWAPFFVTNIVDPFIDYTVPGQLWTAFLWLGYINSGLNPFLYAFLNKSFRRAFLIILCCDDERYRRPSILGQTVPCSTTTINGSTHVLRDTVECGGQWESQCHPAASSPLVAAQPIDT
measurementProtocol: Serotonin 4 (5-HT4) receptor binding assay ([3H]-GR113808)
protocolConditions: guinea pig striatum membrane fractions, 0.1 nM [3H]-GR113808
testReadout: pIC50
Give bare numbers, as −log10 of the molar value.

Short answer on Serotonin 4 (5-HT4) receptor (Cavia porcellus, UniProt O70528) for COc1cc(N)c(Cl)cc1C(=O)NC1CCN(CC2CCN(C(=O)[C@@H]3CCCO3)CC2)CC1 [Compound 2] , pIC50: 7.87

====

Test system: guinea pigs of Std-Hartley strain
measurementProtocol: Effect on electrocardiogram in guinea pigs (QTc)
Type: in vivo, guinea pig
protocolConditions: anesthetized guinea pigs, iv infusion for 15 minutes, maximum dose 30 mg/kg
Procedure: Male guinea pigs of Std-Hartley strain weighing 350-500 g were anesthetized with urethan (1.5 g/kg, ip). […] RR (second): time from the peak of R-wave to the peak of the next R-wave in electrocardiogram (usually, expressed by “second”). […] Consequently, as an index for evaluating the effects on the heart, a dose to be required to prolong the QTc intervals by 5% of the electrocardiogram (ED5%) in guinea pigs was measured, which has widely been used.
testReadout: ED5%, iv (dose required to prolong the QTc intervals by 5%)
For clarity, give the value followed by its unit.

Hi, could you look up ED5%, iv (dose required to prolong the QTc intervals by 5%) for each item in my list?
1. COc1cc(N)c(Cl)cc1C(=O)N[C@H]1CCN(CCCOc2ccc(F)cc2)C[C@H]1OC (relative stereo) [Cisapride]
2. COc1cc(N)c(Cl)cc1C(=O)NC1CCN(CC2CCN(C(=O)c3ccco3)CC2)CC1 [Compound B, hydrate]
3. COc1cc(N)c(Cl)cc1C(=O)NC1CCN(CC2CCN(C(=O)[C@H]3CCCO3)CC2)CC1
4. COc1cc(N)c(Cl)cc1C(=O)NC1CCN(CC2CCN(C(=O)C3CCOCC3)CC2)CC1 [Compound A, hydrate]
5. COc1cc(N)c(Cl)cc1C(=O)NC1CCN(CC2CCN(C(=O)[C@@H]3CCCO3)CC2)CC1
6. COc1cc(N)c(Cl)cc1C(=O)NC1CCN(CC2CCN(C(=O)C3CCOC3)CC2)CC1.O=C(O)/C=C/C(=O)O (stereo not drawn)

OUTPUT:
["0.3 mg/kg", "3.2 mg/kg", "17.4 mg/kg", "16.9 mg/kg", "24.9 mg/kg", "9.4 mg/kg"]
